Below are pKi values recorded for Glycogen phosphorylase, muscle form (Oryctolagus cuniculus).
pKi: −log10 of the molar value.
measured property: pKi

Check out these entries, answers already filled in.
CC(C)(C)c1ccc(-c2n[nH]c([C@@H]3O[C@H](CO)[C@@H](O)[C@H](O)[C@H]3O)n2)cc1	3.11
OC[C@H]1O[C@@H](c2nc(-c3ccc(O)cc3)n[nH]2)[C@H](O)[C@@H](O)[C@@H]1O	5.54
OC[C@H]1O[C@@H](c2nc(-c3ccccn3)n[nH]2)[C@H](O)[C@@H](O)[C@@H]1O	3.15

[1] Nc1ccc(-c2n[nH]c([C@@H]3O[C@H](CO)[C@@H](O)[C@H](O)[C@H]3O)n2)cc1
[2] O=[N+]([O-])c1ccc(-c2n[nH]c([C@@H]3O[C@H](CO)[C@@H](O)[C@H](O)[C@H]3O)n2)cc1
[3] OC[C@H]1O[C@@H](c2nc(-c3ccc4ccccc4c3)no2)[C@H](O)[C@@H](O)[C@@H]1O
Order field: pKi | Direction: descending (largest first) Reply with the labels, ordered as the question asks.
1, 3, 2

Entry source: ChEMBL document CHEMBL3232824
